Assay: amyloid nucleation score (Sup35N fusion, yeast selection) (log enrichment); library NNK3; higher = more nucleation; inactive = no reads after selection;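 note: zero at mode of non-aggregating sequences after 7 days selection at 30°C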

| SUBSTANCE | amyloid nucleation score |
| --- | --- |
| IKYFAIVSVCGFVA | 1.23 |
| VSFNKPLKQVKGPAVTGWKE | inactive |
| HCDCTFYSSLGFIGGTWDSC | inactive |
| QLGLIVRNSCLSSIVVKGML | -0.06 |
| VKFSTRNFNKVQLHVFTTCM | inactive |
| RGSCRLVNLEPCRIM | inactive |
| CSRALYGCDRISRGLLEVCG | inactive |
| WNMVYFLLQFSIDASLGT | inactive |
| RFPEAVPNKWSGPPTFNPHE | inactive |
| TLSRFPLGNCF | inactive |
| RSSPEDPLTSFLGYTGMTAS | inactive |
| CSFIGYHGFVCLSVDIVLGC | 1.51 |
| EDFNRILVRNVRS | inactive |
| SFMVIIYAVERVIVGITGKS | 0.611 |
| YMESVARNSLRVSDCNAK | 0.7 |
| FNRGLLNHFFGH | inactive |
| QKLNIAFRWFWWFCTLSCNS | inactive |
| FLTSVGIAYAKFRLGYSCLL | inactive |
| NEQVGDGLFCP | -0.057 |
| YFWEASGFHFIRLVTTASTQ | inactive |
| YLYLWSFCMSMVGFSIYRES | inactive |
| WTLARFTSD | inactive |
| TVYSGWCTREVRICEPMNRG | inactive |
| YSFAVPSNLLLLK | -0.302 |
| FCENRFTSFLKNVIIW | 0.398 |
| LGEWYWYYFFRARR | inactive |
| VRAPTYVGAWSPGEFNYRSD | inactive |
| IMTVSLGGRNSDSDNLSCLD | inactive |
| RRSRCVRSVYRFRMSRARPP | inactive |
| CVTSVAWANKICARQLFGAD | 0.204 |
| SGCLFAYSWSGCTLVRYDVF | -0.416 |
| AHRCFFHLSRHVRKYAIRQR | inactive |
| NSFDNFFSLNLNTGAYY | inactive |
| WCLSCVLTNIRVRIPNRTVV | inactive |
| VAGSLVAKP | inactive |
| ISKSVLMMNTAKIPPPMF | inactive |
| CFFEVKRSHSIRVFRIGCGV | inactive |
| ALCMIYFW | 2.79 |
| GAKIPELSLLMVTPINARSF | inactive |
| GHIYCYSVKE | inactive |
| LDAVNF | inactive |
| LVVYSVGFWHR | -0.143 |
| VSTWGRDLVVTIAGR | inactive |
| SILDWYVSVVRRGA | inactive |
| HSFFVVQAS | inactive |
| KERIQCYMRLPRFIN | inactive |
| CNNMYRERNNFWILMEWSLL | inactive |
| WVNFRSPFLNGANA | -0.686 |
| QFVCHHGSPAFPNDGVAKLL | inactive |
| HDCSYLGILKDMDS | inactive |
| SIISMDKDRTLAHTDHQV | inactive |
| VLVCYC | inactive |
| STRILRLHITSMLDFRTTGA | inactive |
| YVPIIWYASQHLVPSKSYSA | inactive |
| YSMDTPCFINSGVFSADPNL | inactive |
| YFNLSRIMLNELMCLVIIRQ | inactive |
| VNSLNHYYLIPCARFEPEG | inactive |
| YGCRINLIDRYALKYCVTED | inactive |
| PEMFGRSWARDTRKVTVLAS | inactive |
| SCFCNVFVVDMMSLSMGDIL | 2.4 |
| FHTYIELLRALIAIRQGGSF | inactive |
| SGIVLESLLISRFFKGFHRD | 0.926 |
| GRIGTVGWGISLHYVYTDRA | 0.547 |
| VAKVNCTW | -0.431 |

src = the supplement of paper PMC12042874
